- TARGET OR TEST SYSTEM: ACE2 (angiotensin-converting enzyme 2) (Homo sapiens)
- Construct: recombinant human ACE2, His-tag and Strep-tag, from Sf9 insect cells
- Sequence (Q9BYF1 18-805): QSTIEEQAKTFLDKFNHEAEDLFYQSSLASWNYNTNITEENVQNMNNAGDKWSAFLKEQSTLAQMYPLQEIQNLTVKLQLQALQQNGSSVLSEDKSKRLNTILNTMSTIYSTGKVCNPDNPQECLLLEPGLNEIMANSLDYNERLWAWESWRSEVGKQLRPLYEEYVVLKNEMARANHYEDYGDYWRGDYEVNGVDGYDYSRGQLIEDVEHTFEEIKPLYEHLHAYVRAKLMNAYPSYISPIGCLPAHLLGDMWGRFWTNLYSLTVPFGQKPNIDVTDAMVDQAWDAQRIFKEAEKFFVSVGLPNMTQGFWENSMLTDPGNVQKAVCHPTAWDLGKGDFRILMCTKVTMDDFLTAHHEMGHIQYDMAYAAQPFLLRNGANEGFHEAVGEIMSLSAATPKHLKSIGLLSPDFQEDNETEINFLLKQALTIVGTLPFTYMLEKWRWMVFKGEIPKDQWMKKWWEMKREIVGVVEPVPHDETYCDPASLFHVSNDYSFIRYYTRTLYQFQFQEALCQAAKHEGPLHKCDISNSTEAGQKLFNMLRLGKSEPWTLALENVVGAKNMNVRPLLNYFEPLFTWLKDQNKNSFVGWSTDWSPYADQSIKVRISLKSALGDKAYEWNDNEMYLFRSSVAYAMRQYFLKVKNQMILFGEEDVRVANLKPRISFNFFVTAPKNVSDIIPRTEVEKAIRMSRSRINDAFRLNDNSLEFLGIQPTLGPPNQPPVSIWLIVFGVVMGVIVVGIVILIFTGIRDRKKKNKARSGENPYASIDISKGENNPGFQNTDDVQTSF
- ASSAY DETAILS: SPR (Biacore T200, immobilized ACE2, […] kinetic model)
QUANTITY: pKd
// returns pKd (minus log10 of molar concentration), number only

Req: Note down pKd recorded for CCCCc1nc(Cl)c(CO)n1Cc1ccc(-c2ccccc2-c2nn[nH]n2)cc1 [losartan]
Resp: 7.86
